system: HIV mutant strain Y181C; test: microbe, parasite or virus in culture; format: cell-based, HIV-1; settings: strain Y181C; MT4 LTR-EGFP cells; measured three days after infection
Kindly state Y181C (pEC50) for each of the entries shown.
Give bare numbers.

Example results:
compound="Cc1cc(/C=C/C#N)cc(C)c1Nc1nc(Nc2ccc(C#N)cc2)ncc1C(O)(c1nccs1)C(C)C (centres unmarked)" observed_measurement=6.66
compound="C=CC(O)c1cnc(Nc2ccc(C#N)cc2)nc1Nc1c(C)cc(/C=C/C#N)cc1C (centres unmarked)" observed_measurement=8.44
compound="CCC(O)(c1nccs1)c1cnc(Nc2ccc(C#N)cc2)nc1Nc1c(C)cc(/C=C/C#N)cc1C (centres unmarked)" observed_measurement=7.21

Please go through the list and note Y181C (pEC50) for each compound.
1. Cc1cc(/C=C/C#N)cc(C)c1Nc1nc(Nc2ccc(C#N)cc2)ncc1C(C)(O)c1nccs1 (centres unmarked)
2. C=CC(O)(c1nccs1)c1cnc(Nc2ccc(C#N)cc2)nc1Nc1c(C)cc(/C=C/C#N)cc1C (centres unmarked)

[7.74, 7.70]
